- experiment_notes: probe aWnt5a binding to arrayed compounds – biochemical, biotinylated probe, 635/667 nm fluorescence, primary screen (AID 1113);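 note: score merges 667 nm fluorescence intensity with signal-to-noise per printed feature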
- conditions_used: small-molecule microarray, higher = more signal
measured_property: composite z-score
Answers are plain numbers.

Example cases with answers are listed next.
CN1C(=O)C2C(C3CC3)C=C3CN(Cc4cccc(Cl)c4)[C@@H]([C@@H](O)Cc4ccccc4)C3C2C1=O (stereo partly drawn)    -0.244
COCCOC(=O)N1C(=O)[C@@]2(c3cc(C#CC4(O)CCCCCC4)ccc31)[C@H](c1ccc(O)cc1)N1[C@H](c3ccccc3)[C@H](c3ccccc3)OC(=O)[C@H]1[C@@H]2C(=O)N1CCCCCCC1    0.0742

In the following, a different compound is considered.
Query: Name the reported composite z-score value associated with the compound "COCCCNC(=O)[C@@]1(Sc2ccc(C)cc2)CC(=O)N(Cc2ccccc2C(F)(F)F)[C@@H]1c1ccc(CO)cc1I"
Result: -0.139

---

- experiment_notes: JC-1 mitochondrial potential readout, lung cancer cells – cell-based, A549, JC-1 fluorescence, basal, 24 h, 100 nL, profiling panel (AID 1138);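 note: A549 lung adenocarcinoma cells under basal conditions with no added stimulus; test concentration not given here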
- conditions_used: higher = more signal
measured_property: z-score
Give bare numbers.

The following molecules have reported results that may help.
COC(=O)[C@H](Cc1ccc(O)cc1)N[C@@H](/C=C/C1CC1)[C@H](O)Cc1ccccc1    0.091
COc1ccc([Si](C)(C)[C@H]2[C@H](CCO)O[C@@]3(C(=O)N(Cc4cccc(N5C(=O)c6ccccc6Oc6ccccc65)c4)c4ccccc43)[C@@H]2C)cc1    0.302
CCCC[C@H]1OB(O)C[C@H]2C1=C(COc1ccccc1)C[C@H]1C(=O)C=CC(=O)[C@H]12    1.04

Query: Any idea what its z-score is? The molecule is CN1C(=O)C2C(C1=O)C1C=C(c3ccc(CO)cc3)C2C(C2CC2)N1C (centres undefined)
Result: -0.808

---

- tested_on: Fibroblast growth factor 2 (Homo sapiens) (UniProt P09038)
- Sequence (P09038 whole entry, looked up): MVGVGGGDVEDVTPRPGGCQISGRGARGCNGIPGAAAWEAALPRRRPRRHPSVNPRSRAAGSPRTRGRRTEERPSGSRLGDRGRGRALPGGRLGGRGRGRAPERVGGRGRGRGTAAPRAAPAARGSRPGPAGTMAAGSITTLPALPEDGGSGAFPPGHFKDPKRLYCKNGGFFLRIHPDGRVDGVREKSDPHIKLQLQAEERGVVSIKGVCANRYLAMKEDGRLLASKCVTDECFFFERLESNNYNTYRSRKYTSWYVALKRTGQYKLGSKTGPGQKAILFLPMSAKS
- experiment_notes: basic fibroblast growth factor binding to printed compounds – biochemical, small-molecule microarray, 635/667 nm fluorescence, primary screen (AID 1133)
- conditions_used: FGF2, fluorescence 635/667, higher = more signal
Record form. Attribute: composite z-score. Fill in for each entry.
Numbers only.

Here's what some known entries look like.
CC(C)C(=C=CC[C@H](O)c1ccccc1OCCO)C[C@H](O)c1cc(Cl)cc(Cl)c1O    0.285
O=C(NCC(O)CO)C1N=C(c2ccc(OCCCO)cc2)N(c2ccccc2)O1 (centres undefined)    1.32
C=CC[C@]1(C(=O)NCC(O)CO)COC(c2ccc(OCCCO)cc2)=N1 (some centres undefined)    1.01

Record composite z-score per entry; entries follow.
1. COC(=O)[C@@]1(Cc2ccccc2)N=C(c2ccc(OCCCO)cc2)O[C@H]1c1ccccc1CN=[N+]=[N-]
2. COC(=O)C1=CC(CCCO)=CC(c2cccs2)N(Cc2cc3c(cc2Br)OCO3)C=C1C(=O)OC (centres undefined)
3. CCOC(=O)C[C@H]1[C@H](OC(=O)Cc2ccc3c(c2)OCO3)[C@@H](NC(=O)c2ccc3ccccc3n2)c2cc(OCCCO)ccc2N1C(=O)Cc1ccc(OC)cc1
4. C[N+](C)(C)CCCC[C@@H]1NC(=O)[C@H]2C[C@@H](C(=O)NCCCCCNC(=O)CS)[C@@H](c3cccc(OCCO)c3)N2C1=O

Result:
1.02
1.43
0.394
0.549
